experimentSummary: self-splicing fitness, log relative to wild type (ln ratio); higher = more splicing; Tetrahymena group I intron in knt gene, E. coli kanamycin selection, DiMSum; sequences stand for … in CUCUCU…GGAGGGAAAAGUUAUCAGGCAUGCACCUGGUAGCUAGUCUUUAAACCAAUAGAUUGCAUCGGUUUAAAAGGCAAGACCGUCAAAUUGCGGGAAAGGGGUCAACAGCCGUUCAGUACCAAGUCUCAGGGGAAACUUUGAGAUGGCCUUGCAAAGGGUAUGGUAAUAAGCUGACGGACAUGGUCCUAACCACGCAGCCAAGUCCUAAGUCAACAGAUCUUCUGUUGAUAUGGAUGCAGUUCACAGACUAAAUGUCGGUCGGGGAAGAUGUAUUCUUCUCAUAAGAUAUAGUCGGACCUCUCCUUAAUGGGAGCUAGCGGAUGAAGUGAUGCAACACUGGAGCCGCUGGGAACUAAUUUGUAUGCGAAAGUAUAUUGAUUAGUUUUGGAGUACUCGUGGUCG;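 note: selection with 25 µg/mL kanamycin versus none on LB agar overnight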
conditionLabel: 37 °C
measureName: self-splicing fitness (ln)
The response must contain the number and no unit.

Worked examples, 3 sequences total:
- UUCAAGCAAUAUUACGCGAC: -1.91
- ACGUAGCAAUAUUACGGAUU: -1.8
- CUGGAGCAAUAUUACGAAAU: -2.72

[in] Name the recorded self-splicing fitness (ln) for UCGAAGCAAUAUUACGACUA .
[out] -0.97

[in] Which value of self-splicing fitness (ln) has been reported for CGCAAGCAAUAUUACGCUGU in the records?
[out] -1.48

Values were extracted from the supplement of paper PMC7877785.
